# assay target: human TLR7 (Homo sapiens, UniProt Q9NYK1)
# test details: Human TLR7 agonist activity (hTLR7 reporter) assay in HEK-Blue TLR7 cells, SEAP readout
# run parameters: 18 h treatment, average where assay repeated
pEC50: −log10 of the molar value.
observable: pEC50

INSERT INTO assay_data (record_smiles, measured_number) VALUES
  ('COc1cc(CNC2CCOCC2)ccc1Cn1ncc2nc(N)nc(NCC3CC4(CC4)C3)c21', 7.40),
  ('Nc1nc(NCC2CC3(CC3)C2)c2c(cnn2Cc2ccc(CN3CC4(CNC4)C3)cc2OC(F)F)n1', 6.08),
  ('CCCCNc1nc(N)nc2cnn(Cc3ccc(CN4CCC5(CNC5)C4)cc3OC)c12', 6.83),
  ('CCCCNc1nc(N)nc2cnn(Cc3ccc(CN4CC5(C4)CN(C(=O)CC(C)C)C5)cc3OC)c12', 6.86),
  ('COc1cc(C(=O)N2C[C@H]3CN(C)C[C@H]3C2)ccc1Cn1ncc2nc(N)nc(NCC3CC4(C3)CC(F)(F)C4)c21', 6.09),
  ('COc1cc(CN(C)C)ccc1Cn1ncc2nc(N)nc(NCC3CC4(C3)CC(F)(F)C4)c21', 6.02),
  ('CCC[C@@H](CCO)Nc1nc(N)nc2cnn(Cc3ncc(C4=CC5(CCNCC5)C4)cc3OC)c12', 6.18);

* * *

# assay target: human TLR7 (Homo sapiens)
# test details: Human TLR7 agonist activity (hTLR7 reporter) assay in HEK-Blue TLR7 cells, SEAP readout
# run parameters: 18 h treatment, average where assay repeated
observable: EC50 (nM)

INSERT INTO measurements (molecule, measured_number) VALUES
  ('CN1C[C@H]2C[C@@H]1CN2C(=O)c1ccc(Cn2ncc3nc(N)nc(NCC4CC5(CC5)C4)c32)c(OC(F)F)c1', 188),
  ('COc1cc(CN2CC3(CCOCC3)C2)ccc1Cn1ncc2nc(N)nc(NCC3CC4(CC4)C3)c21', 69.8),
  ('COc1cc(C(=O)NC2CC3(C2)CN(C)C3)ccc1Cn1ncc2nc(N)nc(NCC3CC4(CC4)C3)c21 (stereo not shown)', 842),
  ('CCC[C@@H](CCO)Nc1nc(N)nc2cnn(Cc3ccc(C(=O)N4CC5(CN(C)C5)C4)cc3OC)c12', 93.3),
  ('COc1cc(CN2C[C@@H]3C[C@H]2CN3)ccc1Cn1ncc2nc(N)nc(NCC3CC4(C3)CC4(F)F)c21 (stereo partly shown)', 266),
  ('COc1cc(C(=O)N2CC3(CC(O)C3)C2)ccc1Cn1ncc2nc(N)nc(NCC3CC4(C3)CC4(F)F)c21 (stereo not shown)', 2580),
  ('COc1cc(CN2CC3(CN(C)C3)C2)ccc1Cn1ncc2nc(N)nc(NCC3CC4(CC4)C3)c21', 234);

* * *

# assay target: human TLR7 (Homo sapiens, UniProt Q9NYK1)
# test details: Human TLR7 agonist activity (hTLR7 reporter) assay in HEK-Blue TLR7 cells, SEAP readout
# run parameters: 18 h treatment, average where assay repeated
observable: EC50 (µM)

INSERT INTO results (molecule, measured_number) VALUES
  ('COc1cc(CN2CC3(C2)CN(C(C)=O)C3)ccc1Cn1ncc2nc(N)nc(NCc3noc(C)n3)c21', 0.916),
  ('COc1cc(CN2C[C@H]3CN(C)C[C@H]3C2)ccc1Cn1ncc2nc(N)nc(NCC3CC4(C3)CC4F)c21 (stereo partly shown)', 0.137),
  ('COc1cc(CNC2CCC2)ccc1Cn1ncc2nc(N)nc(NCC3CC4(C3)CC4(F)F)c21 (mixture of isomers)', 0.0681),
  ('COc1cc(CO)ccc1Cn1ncc2nc(N)nc(NCC3CC4(CC4)C3)c21', 0.261);

* * *

# assay target: human TLR7 (Homo sapiens)
# test details: Human TLR7 agonist activity (hTLR7 reporter) assay in HEK-Blue TLR7 cells, SEAP readout
# run parameters: 18 h treatment, average where assay repeated
Reported EC50 by item:
observable: EC50

INSERT INTO results (compound, assay_target, result) VALUES
  ('COc1cc(CN2CC3(CCOCC3)C2)ccc1Cn1ncc2nc(N)nc(NCC3CC4(C3)CC4F)c21 (stereo not shown)', 'human TLR7 (Homo sapiens)', '141 nM'),
  ('COc1cc(CN2C[C@H]3COC[C@H]3C2)ccc1Cn1ncc2nc(N)nc(NCC3CC4(C3)CC4F)c21 (stereo partly shown)', 'human TLR7 (Homo sapiens)', '144 nM'),
  ('CCCCNc1nc(N)nc2cnn(Cc3ccc(CN4CC5(CCNC5)C4)cc3OC)c12', 'human TLR7 (Homo sapiens)', '198 nM'),
  ('CCC[C@@H](CCO)Nc1nc(N)nc2cnn(Cc3ccc(C(=O)N4CC5(C4)CN(C(C)C)C5)cc3OC)c12', 'human TLR7 (Homo sapiens)', '37.1 nM'),
  ('COc1cc(C(=O)N2C[C@@H]3CN(S(C)(=O)=O)C[C@@H]3C2)ccc1Cn1ncc2nc(N)nc(NCC3CC4(CC4)C3)c21', 'human TLR7 (Homo sapiens)', '291 nM'),
  ('CCCCNc1nc(N)nc2cnn(Cc3ccc(CN4CC5(C4)CC(F)(F)C5)cc3OC)c12', 'human TLR7 (Homo sapiens)', '95.4 nM'),
  ('COc1cc(C(=O)NC2CCN(CC(=O)N(C)C)CC2)ccc1Cn1ncc2nc(N)nc(NCC3CC4(CC4)C3)c21', 'human TLR7 (Homo sapiens)', '276 nM');

* * *

# assay target: human TLR7 (Homo sapiens, UniProt Q9NYK1)
# Sequence (Q9NYK1 27-1049): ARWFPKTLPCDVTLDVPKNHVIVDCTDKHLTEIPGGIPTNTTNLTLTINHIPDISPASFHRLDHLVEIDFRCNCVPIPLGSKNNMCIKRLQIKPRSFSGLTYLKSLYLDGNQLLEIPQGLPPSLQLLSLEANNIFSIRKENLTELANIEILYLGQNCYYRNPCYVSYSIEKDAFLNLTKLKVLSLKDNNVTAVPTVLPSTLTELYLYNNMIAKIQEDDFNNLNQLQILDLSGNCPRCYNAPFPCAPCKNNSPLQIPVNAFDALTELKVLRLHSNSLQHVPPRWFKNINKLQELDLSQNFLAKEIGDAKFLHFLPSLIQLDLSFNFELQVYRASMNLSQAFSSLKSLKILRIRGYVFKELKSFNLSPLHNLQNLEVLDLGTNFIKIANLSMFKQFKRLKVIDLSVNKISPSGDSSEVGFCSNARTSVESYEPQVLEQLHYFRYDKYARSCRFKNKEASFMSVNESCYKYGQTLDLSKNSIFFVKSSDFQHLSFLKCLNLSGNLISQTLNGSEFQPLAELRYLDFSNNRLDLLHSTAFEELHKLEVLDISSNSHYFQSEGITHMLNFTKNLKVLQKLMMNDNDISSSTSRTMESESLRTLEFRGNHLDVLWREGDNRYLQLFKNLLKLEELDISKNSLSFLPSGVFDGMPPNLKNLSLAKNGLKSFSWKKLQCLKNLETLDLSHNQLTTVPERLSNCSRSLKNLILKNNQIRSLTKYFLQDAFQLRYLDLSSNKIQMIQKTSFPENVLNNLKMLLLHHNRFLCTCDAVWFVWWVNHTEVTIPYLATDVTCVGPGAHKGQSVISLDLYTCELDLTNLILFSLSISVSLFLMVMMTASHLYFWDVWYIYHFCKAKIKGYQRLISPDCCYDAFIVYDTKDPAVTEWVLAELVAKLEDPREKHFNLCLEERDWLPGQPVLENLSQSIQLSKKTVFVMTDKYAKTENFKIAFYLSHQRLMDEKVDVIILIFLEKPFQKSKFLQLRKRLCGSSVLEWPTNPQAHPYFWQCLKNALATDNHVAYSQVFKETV
# test details: Human TLR7 agonist activity (hTLR7 reporter) assay in HEK-Blue TLR7 cells, SEAP readout
# run parameters: 18 h treatment, average where assay repeated
pEC50: −log10 of the molar value.
I would appreciate it if you labelled entries fulfilled when pEC50 is 7 or higher, otherwise not fulfilled.

INSERT INTO assay_data (compound, cat) VALUES
  ('COc1cc(CN2CC3(CN(C)C3)C2)ccc1Cn1ncc2nc(N)nc(NCc3cc(C)on3)c21 [Compound 211]', 'not fulfilled'),
  ('CCC[C@@H](CCO)Nc1nc(N)nc2cnn(Cc3ccc(CNC4CCOCC45CCC5)cc3OC)c12 (some centres unmarked) [Compound 114]', 'fulfilled'),
  ('Nc1nc(NCC2CC3(CC3)C2)c2c(cnn2Cc2ccc(C(=O)C3C[C@H]4CNC[C@H]4N3)cc2OC(F)F)n1 (some centres unmarked) [Compound 224]', 'not fulfilled');

* * *

Property: EC50; scope: individual compounds
# System: CD69 in human whole blood
# test details: Induction of CD69 in human whole blood (hWB)
# Format: cell-based
# run parameters: heparinized human whole blood, 17 h, CD69 surface staining; 100% set to 1 uM resiquimod; average where assay repeated
observable: EC50 (µM)

INSERT INTO measurements (compound, assay_target, observable, unit_spec, measured_number) VALUES
  ('CCCCNc1nc(N)nc2cnn(Cc3ccc(CN4CCC5(CCNCC5)CC4)cc3OC)c12 [Compound 266]', 'CD69 in human whole blood', 'EC50', 'µM', 0.0093),
  ('CCC[C@@H](CCO)Nc1nc(N)nc2cnn(Cc3ncc(C4CC5(C4)CN(C4CCOCC4)C5)cc3OC)c12 [Compound 250]', 'CD69 in human whole blood', 'EC50', 'µM', 0.0011),
  ('COc1cc(CNC2CCOCC2)ccc1Cn1ncc2nc(N)nc(NCC3CC4(CCC4)C3)c21 [Compound 154]', 'CD69 in human whole blood', 'EC50', 'µM', 0.131),
  ('COc1cc(CN2CC3(CN(C)C3)C2)ccc1Cn1ncc2nc(N)nc(NCc3cc(C)on3)c21 [Compound 211]', 'CD69 in human whole blood', 'EC50', 'µM', 0.0337),
  ('Nc1nc(NCC2CC3(CC3)C2)c2c(cnn2Cc2ccc(CN3C[C@H]4CNC[C@H]4C3)cc2OC(F)F)n1 [Compound 243]', 'CD69 in human whole blood', 'EC50', 'µM', 0.193),
  ('CCC[C@@H](CCO)Nc1nc(N)nc2cnn(Cc3ccc(CN4CC5(CCOCC5)C4)cc3OC)c12 [Compound 113]', 'CD69 in human whole blood', 'EC50', 'µM', 0.0005),
  ('CCC[C@@H](CCO)Nc1nc(N)nc2cnn(Cc3ncc(C4CC5(C4)CN(C(C)C)C5)cc3OC)c12 [Compound 251]', 'CD69 in human whole blood', 'EC50', 'µM', 0.0018),
  ('COc1cc(CN[C@H]2C[C@H](O)C2)ccc1Cn1ncc2nc(N)nc(NCC3CC4(CC4)C3)c21 [Compound 167]', 'CD69 in human whole blood', 'EC50', 'µM', 0.0017),
  ('COc1cc(CO)ccc1Cn1ncc2nc(N)nc(NCC3CC4(CC4)C3)c21 [Compound 166]', 'CD69 in human whole blood', 'EC50', 'µM', 0.117),
  ('COc1cc(CN2CC3(CCO3)C2)ccc1Cn1ncc2nc(N)nc(NCC3CC4(C3)CC4F)c21 (stereo not shown) [Compound 127]', 'CD69 in human whole blood', 'EC50', 'µM', 0.413),
  ('COc1cc(C(=O)NC2CCN(C(C)C)CC2)ccc1Cn1ncc2nc(N)nc(NCC3CC4(CC4)C3)c21 [Compound 194]', 'CD69 in human whole blood', 'EC50', 'µM', 0.101),
  ('COc1cc(C(=O)N2CCN(S(C)(=O)=O)CC2)ccc1Cn1ncc2nc(N)nc(NCC3CC4(CC4)C3)c21 [Compound 236]', 'CD69 in human whole blood', 'EC50', 'µM', 0.284),
  ('CCCN1CCC(NC(=O)c2ccc(Cn3ncc4nc(N)nc(NCC5CC6(CC6)C5)c43)c(OC)c2)CC1 [Compound 197]', 'CD69 in human whole blood', 'EC50', 'µM', 0.0355);
